target: β1-AR (Homo sapiens, UniProt P08588); assay: [3H]DHA radioligand displacement on membranes of HEK293T cells expressing β1-AR; conditions: Ki at β1-AR, trans-isomer
Sequence (P08588 whole entry): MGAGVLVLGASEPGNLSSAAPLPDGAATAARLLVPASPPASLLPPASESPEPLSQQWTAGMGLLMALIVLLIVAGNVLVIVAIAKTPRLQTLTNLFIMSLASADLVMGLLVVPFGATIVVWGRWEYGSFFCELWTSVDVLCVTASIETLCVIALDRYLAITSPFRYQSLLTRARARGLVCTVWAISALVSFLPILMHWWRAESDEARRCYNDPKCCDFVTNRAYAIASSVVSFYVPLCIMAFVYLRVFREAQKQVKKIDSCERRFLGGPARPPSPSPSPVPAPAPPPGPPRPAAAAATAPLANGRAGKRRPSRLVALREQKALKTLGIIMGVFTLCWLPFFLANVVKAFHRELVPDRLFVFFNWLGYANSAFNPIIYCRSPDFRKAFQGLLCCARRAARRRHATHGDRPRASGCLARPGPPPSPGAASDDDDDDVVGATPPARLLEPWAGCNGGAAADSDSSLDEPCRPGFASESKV
PROPERTY_MEASURED: Ki

- COMPOUND: "CC(C)NCC(O)COc1ccc(/N=N/c2ccccc2)cc1 (centres unmarked)"
  OBSERVED_MEASUREMENT: "< 13 nM"

Now for another entry.
Measured on β1-AR (Homo sapiens, UniProt P08588), CC(C)NCC(O)COc1ccccc1/N=N/c1ccccc1 (centres unmarked) has a documented Ki of < 13 nM

---

target: β1-AR (Homo sapiens, UniProt P08588); assay: [3H]DHA radioligand displacement on membranes of HEK293T cells expressing β1-AR; details: pKi PSScis, β1-AR, illuminated to PSScis (360 nm) before experiment
PROPERTY_MEASURED: pKi
A value of pKi is the negative decimal logarithm of a concentration given in moles per litre.

Measured on β1-AR (Homo sapiens, UniProt P08588), CC(C)NCC(O)COc1cccc(N=Nc2ccccc2)c1 (stereo not drawn) has a documented pKi of 6.70

Measured on β1-AR (Homo sapiens, UniProt P08588), CC(C)NCC(O)COc1ccc(/N=N/c2ccccc2)cc1 (stereo not drawn) has a documented pKi of 6.70

Measured on β1-AR (Homo sapiens, UniProt P08588), CC(C)NCC(O)COc1ccccc1/N=N/c1ccccc1 (stereo not drawn) has a documented pKi of 7.10

---

molecular target: β2-AR (Homo sapiens); experiment: Conformational β2-AR BRET sensor in HEK293A cells
Sequence (P07550 1-369): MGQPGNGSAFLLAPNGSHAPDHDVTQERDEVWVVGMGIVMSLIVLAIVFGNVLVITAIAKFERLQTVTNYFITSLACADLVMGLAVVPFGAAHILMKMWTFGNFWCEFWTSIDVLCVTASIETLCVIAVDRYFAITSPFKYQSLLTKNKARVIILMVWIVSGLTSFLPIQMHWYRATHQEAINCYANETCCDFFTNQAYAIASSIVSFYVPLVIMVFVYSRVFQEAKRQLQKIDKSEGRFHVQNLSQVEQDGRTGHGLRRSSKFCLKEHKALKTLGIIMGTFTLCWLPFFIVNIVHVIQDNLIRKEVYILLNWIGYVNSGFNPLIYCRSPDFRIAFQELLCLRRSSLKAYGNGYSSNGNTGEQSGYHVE
PROPERTY_MEASURED: pIC50
A value of pIC50 is the negative decimal logarithm of a concentration given in moles per litre.

- MOLECULE: "CC(C)NCC(O)COc1cccc(N=Nc2ccccc2)c1 (centres unmarked)"
  pIC50: 7.50

Now for another entry.
Measured on β2-AR (Homo sapiens), CC(C)NCC(O)COc1cccc(/N=N/c2ccccc2)c1 (stereo not drawn) [trans-Opto-prop-2] has a documented pIC50 of 6.00

---

target: β2-AR (Homo sapiens, UniProt P07550); experiment: [3H]DHA radioligand displacement on membranes of HEK293T cells expressing β2-AR; conditions: pKi trans, β2-AR, without prior illumination (trans-isomer)
Sequence (P07550 whole entry): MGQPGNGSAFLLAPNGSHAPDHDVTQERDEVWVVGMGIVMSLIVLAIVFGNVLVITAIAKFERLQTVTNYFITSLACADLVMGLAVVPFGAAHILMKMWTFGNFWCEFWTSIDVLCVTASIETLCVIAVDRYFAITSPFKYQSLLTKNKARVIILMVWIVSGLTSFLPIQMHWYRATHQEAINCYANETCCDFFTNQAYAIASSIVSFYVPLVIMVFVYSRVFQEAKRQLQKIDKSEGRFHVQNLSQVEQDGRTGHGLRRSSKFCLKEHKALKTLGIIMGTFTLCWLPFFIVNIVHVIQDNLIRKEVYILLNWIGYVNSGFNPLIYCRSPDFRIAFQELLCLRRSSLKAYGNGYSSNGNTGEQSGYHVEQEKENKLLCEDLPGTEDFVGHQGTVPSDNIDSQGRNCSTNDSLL
Entries and their pKi values follow.
A value of pKi is the negative decimal logarithm of a concentration given in moles per litre.

Field: example entries. Status: answers known.
- COMPOUND: "CC(C)NCC(O)COc1cccc(N=Nc2ccccc2)c1 (stereo not drawn)"
  TARGET_OR_TEST_SYSTEM: "β2-AR (Homo sapiens, UniProt P07550)"
  OBSERVED_MEASUREMENT: 5.80
- COMPOUND: "CC(C)NCC(O)COc1ccc(/N=N/c2ccccc2)cc1 (stereo not drawn)"
  TARGET_OR_TEST_SYSTEM: "β2-AR (Homo sapiens, UniProt P07550)"
  OBSERVED_MEASUREMENT: 5.00

Now for another entry.
Measured on β2-AR (Homo sapiens, UniProt P07550), CC(C)NCC(O)COc1ccccc1/N=N/c1ccccc1 (stereo not drawn) has a documented pKi of 9.10

---

molecular target: β2-AR (Homo sapiens); assay: [3H]DHA radioligand displacement on membranes of HEK293T cells expressing β2-AR; conditions: pKi at PSStrans, β2-AR, at PSStrans (434 nm back-switching)
PROPERTY_MEASURED: Ki (nM)
Form entry: value (nM) — number only.

The measured Ki associated with CC(C)NCC(O)COc1cccc(N=Nc2ccccc2)c1 (stereo not shown) reads 31.6
